Reference source: ChEMBL document CHEMBL4177521

Molecular target: Fatty-acid amide hydrolase 2 (Homo sapiens, UniProt Q6GMR7)
Sequence (Q6GMR7 whole entry): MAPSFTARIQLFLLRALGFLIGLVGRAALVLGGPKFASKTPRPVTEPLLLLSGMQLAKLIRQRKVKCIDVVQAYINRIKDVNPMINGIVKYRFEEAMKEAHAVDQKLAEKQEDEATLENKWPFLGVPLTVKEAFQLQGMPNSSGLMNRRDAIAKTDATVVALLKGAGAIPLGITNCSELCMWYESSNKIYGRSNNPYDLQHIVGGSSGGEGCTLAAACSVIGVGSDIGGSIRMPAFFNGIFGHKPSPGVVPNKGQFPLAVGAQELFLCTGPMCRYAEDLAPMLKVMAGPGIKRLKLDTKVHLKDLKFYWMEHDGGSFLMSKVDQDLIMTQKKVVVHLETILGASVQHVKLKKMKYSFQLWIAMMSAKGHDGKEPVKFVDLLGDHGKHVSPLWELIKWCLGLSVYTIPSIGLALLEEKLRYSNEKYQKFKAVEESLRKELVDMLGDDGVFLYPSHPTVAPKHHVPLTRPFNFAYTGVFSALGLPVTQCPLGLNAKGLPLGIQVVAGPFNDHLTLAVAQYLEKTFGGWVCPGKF
Assay: Inhibition of recombinant human N-terminal FLAG-tagged/C-terminal Myc-His6 tagged FAAH2 (32 to 579 residues) expressed in COS7 cell membranes
pIC50: −log10 of the molar value.
Recorded pIC50 by entry
Metric: pIC50

{"columns": ["Compound Smiles", "Experimental System", "Endpoint Result"],
 "data": [
  ["NC(=O)c1cccc(-c2cccc(OC(=O)NC3CCCCC3)c2)c1", "Fatty-acid amide hydrolase 2 (Homo sapiens, UniProt Q6GMR7)", 8.30],
  ["O=C(CCCCCCc1ccccc1)c1ncc(-c2ccccn2)o1", "Fatty-acid amide hydrolase 2 (Homo sapiens, UniProt Q6GMR7)", 7.87]
]}
